# Experimental target: T1, human ILT2 on primary NK cells (human, UniProt Q8NHL6 24-650)
# T1 construct: whole, on cells
# T1 sequence (Q8NHL6 24-650): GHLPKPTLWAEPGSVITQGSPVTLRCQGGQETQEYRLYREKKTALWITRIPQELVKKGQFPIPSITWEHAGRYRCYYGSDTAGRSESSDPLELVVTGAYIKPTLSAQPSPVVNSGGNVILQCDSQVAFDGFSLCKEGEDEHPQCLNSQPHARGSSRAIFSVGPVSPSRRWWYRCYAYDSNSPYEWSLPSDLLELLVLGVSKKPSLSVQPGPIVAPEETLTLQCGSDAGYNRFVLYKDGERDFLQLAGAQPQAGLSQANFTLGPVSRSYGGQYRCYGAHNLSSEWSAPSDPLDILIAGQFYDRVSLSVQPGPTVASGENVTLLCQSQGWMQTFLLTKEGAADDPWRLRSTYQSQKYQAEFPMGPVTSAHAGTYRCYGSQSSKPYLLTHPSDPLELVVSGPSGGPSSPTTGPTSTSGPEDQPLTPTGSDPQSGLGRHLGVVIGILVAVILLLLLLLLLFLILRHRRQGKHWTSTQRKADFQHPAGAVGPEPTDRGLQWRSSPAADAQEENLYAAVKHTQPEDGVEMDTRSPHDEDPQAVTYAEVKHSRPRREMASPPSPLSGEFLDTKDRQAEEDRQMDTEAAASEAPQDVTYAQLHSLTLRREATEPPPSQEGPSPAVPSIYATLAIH
# Protocol summary: flow cytometry, primary NK cells
Assay endpoint: EC50 (µg/mL)
Write down the numeric answer in µg/mL and omit the unit.

INSERT INTO measurements (binder, unit_abbreviation, endpoint_result) VALUES
  ('26D8 (antibody, human IgG1, V domains shown) VH: QVQLQQSGAELVKPGASVKLSCKASGYTFTEHTIHWIKQRSGQGLEWIGWFYPGSGSMKYNEKFKDKATLTADKSSSTVYMELTRLTSEDSAVYFCARHTNWDFDYWGQGTTLTVSS VL: DIVLTQSPASLAVSLGQRATISCKASQSVDYGGDSYMNWYQQKPGQPPKLLIYAASNLESGIPARFSGSGSGTDLTLNIHPVEEDDAAMYYCQQSNEEPWTFGGGTKLEIK', 'µg/mL', 0.11),
  ('27C10 (antibody, human IgG1, V domains shown) VH: EVQLQESGPGLVKPSQSLSLTCSVTGYSITSGYYWNWIRQFPENKLEWMGYIRYDGSNNYNPSLNNRISITRDASKNQFFLKLNSVTTEDTATYYCARGWLLWFYAVDYWGQGTSVTVSS VL: DVVMTQTPLSLPVSLGDQASISCRSSQSIVHTNGNTYLEWYLQKSGQSPKLLIYKVSNRLSGVPDRFSGSGSGTDFTLKISRVEAEDLGIYYCFQGSHVPWTFGGGTKLEIK', 'µg/mL', 0.33);

[in] Report EC50 for 12D12 (antibody, human IgG1, V domains shown) VH: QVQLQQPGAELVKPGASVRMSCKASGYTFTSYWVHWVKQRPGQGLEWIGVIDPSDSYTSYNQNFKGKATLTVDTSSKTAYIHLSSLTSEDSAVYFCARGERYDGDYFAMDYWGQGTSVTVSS VL: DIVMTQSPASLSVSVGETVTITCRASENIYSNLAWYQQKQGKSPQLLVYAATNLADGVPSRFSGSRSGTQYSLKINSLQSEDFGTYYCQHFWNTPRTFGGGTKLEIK please.
[out] 0.09
